Form field: pEC50 (one value per entry).
Tested on: Trypanosoma brucei rhodesiense
EXPERIMENT_SUMMARY: Antitrypanosomal activity against Trypanosoma brucei rhodesiense STIB900 infected in rat L6 cells after 72 hrs by alamar blue assay
Type: functional, organism-based
pEC50: −log10 of the molar value.
PROPERTY: pEC50

>>> numeric_readout("Cc1ccc([P+](Cc2ccc(CCc3ccc(C[P+](c4ccc(C)cc4)(c4ccc(C)cc4)c4ccc(C)cc4)cc3)cc2)(c2ccc(C)cc2)c2ccc(C)cc2)cc1.[Cl-].[Cl-]")
7.30
>>> numeric_readout("Cc1ccc([P+](Cc2ccc(CCCc3ccc(C[P+](c4ccc(C)cc4)(c4ccc(C)cc4)c4ccc(C)cc4)cc3)cc2)(c2ccc(C)cc2)c2ccc(C)cc2)cc1.[Cl-].[Cl-]")
7.20
>>> numeric_readout("Cc1ccc([P+](Cc2ccc(C(=O)c3ccc(C[P+](c4ccc(C)cc4)(c4ccc(C)cc4)c4ccc(C)cc4)cc3)cc2)(c2ccc(C)cc2)c2ccc(C)cc2)cc1.[Br-].[Br-]")
6.66
>>> numeric_readout("Cc1ccc([P+](Cc2ccc(C(=O)c3ccc(C[P+](c4ccc(C)cc4)(c4ccc(C)cc4)c4ccc(C)cc4)cc3)cc2)(c2ccc(C)cc2)c2ccc(C)cc2)cc1.[Cl-].[Cl-]")
7.08
>>> numeric_readout("Cc1ccc(C[P+](c2ccccc2)(c2ccccc2)c2ccccc2)cc1.[Br-]")
6.44
